system: 786-0 renal; experiment: NCI tumour cell line growth inhibition, 48 h
Where a SMILES comes first, the peptide text is derived from it. The star is where a group is joined. Boc = CC(C)(C)OC(=O)*
Readout: TGI

Sample answers from the record:
CC(C)(C)OC(=O)C(C#N)C(=O)c1ccc(C(=O)O)[nH]1 (stereo not drawn) : > 100 µM
Cc1nc2ccc(Br)cc2c(=O)n1-c1ccc(N)cc1 : > 100 µM
CC(C)[P+](c1ccccc1)(c1ccccc1)c1ccccc1 : > 100 µM
CCOC(=O)c1cc2c3c(c(C(C)=O)c(OC)c2[nH]1)N(C(=O)CC)CC3 : 34.9 µM
Fc1ccc2c(c1)C1=C(CCC2)C(c2ccc(Cl)cc2)NC(=S)N1 (stereo not drawn) : > 100 µM
CCCC1=C(OC)C(=O)c2c(C)cc(Cl)nc2C1=O : 5.23 µM
N/N=C(/N)SCCCCCCCCCCS/C(N)=N/N : > 100 µM

# input molecule: COC(=O)C(Cc1c[nH]c2ccccc12)NC(=O)C(Cc1c[nH]c2ccccc12)NC(=O)C(Cc1c[nH]c2ccccc12)NC(=O)C(Cc1c[nH]c2ccccc12)NC(=O)C(Cc1c[nH]c2ccccc12)NC(=O)C(Cc1c[nH]c2ccccc12)NC(=O)C(Cc1c[nH]c2ccccc12)NC(=O)OC(C)(C)C (stereo not drawn) (Boc-WWWWWWW-OMe; configuration not given here) ; wanted: its TGI
> 100 µM

Hey, just so you know, these numbers are from PubChem BioAssay (NCI).
